# system name: Glucose transporter (Leishmania mexicana) (UniProt O61059)
# assay protocol: ST_JUDE_LEISH: Cytotoxicity at 2uM final concentration against transgenic Leishmania Mexicana promastigotes LmGT2 that are glucose transport deficient and complemented with the L. Mexicana glucose transporter 2. Activity is measured by DNA content using SYBR green in vitro
# Type: functional
measured quantity: inhibition (%)
One number for each entry, in %.

Would you please look over these solved cases?
O=C(Nc1cccc(CN2CCN(Cc3cccc(O)c3)CC2)c1)c1ccc(Cl)c(Cl)c1 ... -1.62
O=S(=O)(NCCN1CCCC1)c1ccc(-c2ccc(CNCc3ccsc3)cc2)cc1 ... 5.55
CC(C)CCN1CCCN(Cc2ccc(C(=O)Nc3ccc(F)c(F)c3)cc2)CC1 ... 4.14
O=C(Nc1cccc(C(F)(F)F)c1)c1cccc(S(=O)(=O)NCC2CCCN(CC3CCCCC3)C2)c1 (configuration not stated) ... -2.09
COc1ccc(NC(=O)/C=C/c2ccccc2Cl)cc1OCCN1CCC(N(C)C)CC1 ... 1.83
NC1CCN(c2nc(NCCc3ccc(O)cc3)nc(NCc3ccccc3-c3ccc(C(F)(F)F)cc3)n2)CC1 ... 2.19
CO/C(=C\C=C\c1cc2cc(Cl)c(Cl)cc2[nH]1)C(=O)NCCCN1CCN(c2cccc(OCC(=O)Nc3ccccc3)c2)CC1 ... 5.76
COc1ccc2cc(C=NNc3nc4ccccc4[nH]3)c(Cl)nc2c1 ... 1.79
O=S(=O)(Nc1ccc(-c2ccc(CN3CCCC3)cc2)cc1)c1cccc2cccnc12 ... 71.7
CCNc1cc(C(=O)N[C@@H](Cc2ccccc2)[C@H](O)CN[C@@H](C)c2ccccc2)cc(N2CCCC2=O)c1 ... 1.24

Go through the items and report each one's inhibition.
1. O=S(=O)(Nc1cccc(CCN2CCCCC2CCN2CCCC2)c1)c1ccc2ccccc2c1 (configuration not stated)
2. COc1ccc(-c2ccc(NC(=O)c3cccc(F)c3)cc2)cc1CNC(C)C
3. COc1cc(C2CCCCC2)c(OC)cc1CC1c2cc(O)c(Cl)cc2CCN1C (configuration not stated)
4. O=C(NCCNc1ccnc(Nc2ccc(F)cc2)n1)c1cc2ccccc2s1
5. O=C(/C=C/c1ccc(C(F)(F)F)cc1)NCCCCCN1CCCN(C(=O)Nc2ccc(Cl)c(C(F)(F)F)c2)CC1
6. Cc1cc(O)c(CN(C)Cc2ccc3c(c2)OCCO3)cc1C(C)C
7. CC(C)CNCc1cccc(-c2cccc(CN(CCCN3CCN(C)CC3)C(=O)NC3CCCCC3)c2)c1

OUT:
[-3.3, -2.2, 12.9, 0.69, 0.66, 2.54, -0.56]
